System: Pseudomonas aeruginosa
Assay: Antibacterial activity against Pseudomonas aeruginosa ATCC 27853 assessed as inhibition of bacterial growth measured after 18 hrs by resazurin dye based analysis
Type: functional
property-label: MIC

# entry-smiles, MIC
data = [
    ("C[C@]1(C(=O)NCCCNCCCCCCCCCCCCNCCCNC(=O)[C@@]2(C)CCC[C@]3(C)c4cc(O)ccc4CC[C@@H]23)CCC[C@]2(C)c3cc(O)ccc3CC[C@@H]12.O=C(O)C(F)(F)F.O=C(O)C(F)(F)F", "> 30.3 µM"),
]

// switching to the query compound
Quick one: MIC for C[C@@]12CCC[C@](C)(C(=O)O)[C@H]1CCc1ccc(OC(=O)CCCNCCCCCCNCCCNC(=O)Oc3ccc4c(c3)[C@@]3(C)CCC[C@](C)(C(=O)O)[C@@H]3CC4)cc12.O=C(O)C(F)(F)F.O=C(O)C(F)(F)F ?
> 30.2 µM
